Here the recorded pIC50 is given for each entry.
Biological target: Disintegrin and metalloproteinase domain-containing protein 17 (Homo sapiens)
Sequence (P78536 whole entry, the tested form may be a part): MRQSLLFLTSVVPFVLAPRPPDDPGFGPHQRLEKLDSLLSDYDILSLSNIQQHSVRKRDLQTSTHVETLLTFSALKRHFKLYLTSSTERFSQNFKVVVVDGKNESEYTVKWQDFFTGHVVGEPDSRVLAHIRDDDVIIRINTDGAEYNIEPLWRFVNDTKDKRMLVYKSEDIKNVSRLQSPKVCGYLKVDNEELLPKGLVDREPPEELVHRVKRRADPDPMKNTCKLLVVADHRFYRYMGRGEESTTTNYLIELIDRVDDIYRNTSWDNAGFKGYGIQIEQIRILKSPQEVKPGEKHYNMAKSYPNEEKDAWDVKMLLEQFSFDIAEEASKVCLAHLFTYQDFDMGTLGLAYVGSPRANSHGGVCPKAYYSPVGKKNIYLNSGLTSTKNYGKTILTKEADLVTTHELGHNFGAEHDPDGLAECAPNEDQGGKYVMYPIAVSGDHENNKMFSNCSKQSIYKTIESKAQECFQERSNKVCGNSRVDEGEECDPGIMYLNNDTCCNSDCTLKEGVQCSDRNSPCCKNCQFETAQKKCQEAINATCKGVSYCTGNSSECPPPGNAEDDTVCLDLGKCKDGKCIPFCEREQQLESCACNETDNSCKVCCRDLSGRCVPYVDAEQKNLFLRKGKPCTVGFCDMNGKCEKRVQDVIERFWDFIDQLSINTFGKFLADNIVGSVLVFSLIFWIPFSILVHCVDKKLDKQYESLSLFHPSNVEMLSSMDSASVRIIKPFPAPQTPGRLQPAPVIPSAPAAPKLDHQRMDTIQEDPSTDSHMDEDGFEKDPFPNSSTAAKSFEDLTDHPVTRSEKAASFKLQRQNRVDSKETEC
Please report pIC50 as the negative decimal logarithm of the molar concentration, giving only the number.

>  <compound>
CC#CCOc1ccc(S(=O)(=O)NC(C)C(=O)NO)cc1 (configuration not stated)

>  <property>
pIC50

>  <number>
8.40

$$$$

# input for lookup
Recall the recorded pIC50 for CNC(=O)[C@H](Cc1cccc2c1CCCC2)NC(=O)[C@H](CC(C)C)[C@H](C)C(=O)NO with Disintegrin and metalloproteinase domain-containing protein 17 (Homo sapiens) and state it.
9.52
